These data points were gathered from patent US20150087627A1.

- tgt: PI3K α (p110α/p85α) (Homo sapiens)
- Construct: purchased Upstate / Millipore Corporation
- Sequence (P42336 whole entry): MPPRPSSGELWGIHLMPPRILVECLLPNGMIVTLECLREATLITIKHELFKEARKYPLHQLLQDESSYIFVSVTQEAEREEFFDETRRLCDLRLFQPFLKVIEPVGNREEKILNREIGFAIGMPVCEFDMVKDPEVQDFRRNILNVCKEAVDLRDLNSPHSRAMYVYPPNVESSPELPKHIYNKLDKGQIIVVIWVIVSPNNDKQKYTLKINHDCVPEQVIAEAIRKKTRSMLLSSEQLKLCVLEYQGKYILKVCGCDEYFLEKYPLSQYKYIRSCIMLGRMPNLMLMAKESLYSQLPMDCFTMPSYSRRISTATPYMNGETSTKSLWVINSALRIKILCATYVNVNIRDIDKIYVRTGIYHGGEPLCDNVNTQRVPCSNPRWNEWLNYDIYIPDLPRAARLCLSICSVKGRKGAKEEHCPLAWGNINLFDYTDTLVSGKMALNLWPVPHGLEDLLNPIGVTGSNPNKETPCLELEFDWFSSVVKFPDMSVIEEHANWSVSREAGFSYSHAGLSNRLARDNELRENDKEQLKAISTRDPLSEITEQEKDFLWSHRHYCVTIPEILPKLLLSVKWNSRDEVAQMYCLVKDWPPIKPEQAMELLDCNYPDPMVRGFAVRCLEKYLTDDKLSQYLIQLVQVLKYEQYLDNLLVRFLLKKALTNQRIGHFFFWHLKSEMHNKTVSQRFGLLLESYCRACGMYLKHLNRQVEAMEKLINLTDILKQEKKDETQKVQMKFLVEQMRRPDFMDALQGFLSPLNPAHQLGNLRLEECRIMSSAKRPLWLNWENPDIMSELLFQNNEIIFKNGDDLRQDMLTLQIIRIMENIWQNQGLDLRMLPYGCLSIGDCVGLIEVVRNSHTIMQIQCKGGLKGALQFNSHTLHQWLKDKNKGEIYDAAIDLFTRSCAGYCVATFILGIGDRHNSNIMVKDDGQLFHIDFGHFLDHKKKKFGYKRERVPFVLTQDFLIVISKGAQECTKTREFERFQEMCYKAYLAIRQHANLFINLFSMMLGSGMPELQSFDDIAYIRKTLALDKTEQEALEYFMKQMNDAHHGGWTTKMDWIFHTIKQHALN
- Sequence (P27986 whole entry partner): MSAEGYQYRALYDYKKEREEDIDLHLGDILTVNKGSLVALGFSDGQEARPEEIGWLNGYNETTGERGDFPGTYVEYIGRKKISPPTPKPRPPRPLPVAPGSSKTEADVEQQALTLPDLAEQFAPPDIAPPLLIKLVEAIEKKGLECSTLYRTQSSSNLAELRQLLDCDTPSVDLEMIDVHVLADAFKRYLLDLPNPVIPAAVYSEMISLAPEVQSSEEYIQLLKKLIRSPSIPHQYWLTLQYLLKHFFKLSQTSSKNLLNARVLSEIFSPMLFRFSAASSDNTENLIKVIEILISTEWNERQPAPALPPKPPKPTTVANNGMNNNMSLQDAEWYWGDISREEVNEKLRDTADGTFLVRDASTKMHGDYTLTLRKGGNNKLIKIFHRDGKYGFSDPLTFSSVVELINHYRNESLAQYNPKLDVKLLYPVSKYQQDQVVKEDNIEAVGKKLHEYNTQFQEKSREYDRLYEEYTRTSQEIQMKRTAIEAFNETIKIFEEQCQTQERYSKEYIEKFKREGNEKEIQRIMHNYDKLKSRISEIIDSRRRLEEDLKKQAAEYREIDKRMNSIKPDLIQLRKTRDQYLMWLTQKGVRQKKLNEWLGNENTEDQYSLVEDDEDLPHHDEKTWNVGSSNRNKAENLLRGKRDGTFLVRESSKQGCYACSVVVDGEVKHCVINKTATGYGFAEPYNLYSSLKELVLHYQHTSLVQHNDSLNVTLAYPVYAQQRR
- assay.info: PI 3-Kinase (human) HTRF assay, PI3K α
- Assay type: biochemical
- condition.details: read-out: PI3K α IC50
Can you tell me IC50 for the items I'm about to list?

Find IC50 (PI3K α (p110α/p85α) (Homo sapiens)) for the entry Nc1nc2cc(-c3ccc4ncc(N5CCN(C(=O)CN6CCCC6)CC5)nc4c3)ccc2o1 [Compound 278]
< 100 nM

Notebook: pull reported IC50 for PI3K α (p110α/p85α) (Homo sapiens), entry Nc1nc2cc(-c3ccc4ncc(C(=O)N5CCC(N6CCC(F)(F)C6)C5)n4c3)ccc2o1 (stereo not shown) [Compound 500]
< 1000 nM

Param readout= IC50; system= PI3K α (p110α/p85α) (Homo sapiens); entry= CC(=O)NC1CCN(C(=O)c2cnc3ccc(-c4ccc5oc(N)nc5c4)cn23)CC1 [Compound 147] ; returns value.
< 1000 nM

State its IC50 on PI3K α (p110α/p85α) (Homo sapiens): Nc1nc2ccc(-c3ccc4ncc(C(=O)N5CCOCC5)n4c3)cc2s1 [Compound 125]
< 1000 nM

Request - read-out IC50 | tested on PI3K α (p110α/p85α) (Homo sapiens) | molecule Nc1nc2cc(-c3ccc4ncc(C(=O)N5CCC(F)(F)CC5)n4c3)ccc2o1 [Compound 501]
< 1000 nM

IC50 of Nc1nc2cc(-c3ccc4ncc(C(=O)N5CCOCC5)n4c3)cc(F)c2o1 [Compound 360] on PI3K α (p110α/p85α) (Homo sapiens)?
< 100 nM

// map Nc1nc2cc(-c3ccc4ncc(C(=O)N5CC(n6cccn6)C5)n4c3)ccc2o1 [Compound 479] to recorded IC50 (system: PI3K α (p110α/p85α) (Homo sapiens))
< 100 nM

Recall the recorded IC50 for CN1CCN(Cc2nnc3ccc(-c4ccc5nc(N)oc5c4)cn23)CC1 [Compound 547] with PI3K α (p110α/p85α) (Homo sapiens) and state it.
> 10000 nM

Test system PI3K α (p110α/p85α) (Homo sapiens); read-out IC50; what value for CNC(=O)C1CN(c2cnc3ccc(-c4ccc5oc(N)nc5c4)cc3n2)C1 [Compound 214] ?
< 100 nM

GET /values?readout=IC50&system=PI3K α (p110α/p85α) (Homo sapiens)&item= CN1CCN(C2CCN(c3cnc4ccc(-c5ccc6oc(N)nc6c5)cc4n3)CC2)CC1 [Compound 227]
< 100 nM
